All figures here come from patent US20240109865A1.

Biological target: FGFR2 (Homo sapiens (Human), UniProt P21802)
Sequence (P21802 22-821): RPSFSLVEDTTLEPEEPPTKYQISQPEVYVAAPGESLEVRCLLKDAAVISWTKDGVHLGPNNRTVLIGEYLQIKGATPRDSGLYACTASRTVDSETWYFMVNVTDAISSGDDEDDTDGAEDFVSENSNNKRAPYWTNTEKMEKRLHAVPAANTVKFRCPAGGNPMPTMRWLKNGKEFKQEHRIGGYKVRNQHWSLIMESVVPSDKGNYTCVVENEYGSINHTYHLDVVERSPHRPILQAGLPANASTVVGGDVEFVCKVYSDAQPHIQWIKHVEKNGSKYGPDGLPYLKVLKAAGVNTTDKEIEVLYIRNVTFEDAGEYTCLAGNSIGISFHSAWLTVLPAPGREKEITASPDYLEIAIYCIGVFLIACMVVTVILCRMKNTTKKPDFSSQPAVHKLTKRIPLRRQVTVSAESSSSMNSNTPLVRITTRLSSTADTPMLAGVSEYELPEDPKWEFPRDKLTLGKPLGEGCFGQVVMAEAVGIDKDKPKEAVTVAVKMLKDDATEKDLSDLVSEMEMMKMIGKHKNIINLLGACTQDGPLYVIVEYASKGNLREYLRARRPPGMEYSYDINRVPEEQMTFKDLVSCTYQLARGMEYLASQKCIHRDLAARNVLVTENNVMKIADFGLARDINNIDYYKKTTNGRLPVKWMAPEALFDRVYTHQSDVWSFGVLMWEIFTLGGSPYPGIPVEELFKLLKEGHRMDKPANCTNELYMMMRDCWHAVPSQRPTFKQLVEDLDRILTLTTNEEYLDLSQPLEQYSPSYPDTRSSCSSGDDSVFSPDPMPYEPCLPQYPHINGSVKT
Experiment: Kinase assay, binding constants (Kd), kinase-tagged T7 phage, qPCR
Experimental: Kinase-tagged T7 phage strains were prepared in an E. coli host derived from the BL21 strain. E. coli were grown to log-phase and infected with T7 phage and incubated with shaking at 32° C. until lysis. The lysates were centrifuged and filtered to remove cell debris. […] Test compounds were prepared as 111λ stocks in 10000 DMS0. Kds were determined using an 11-point 3-fold compound dilution series with three DMSO control points. […] The kinase concentration in the eluates was measured by qPCR. […]
Listed here: items and their measured Kd.
endpoint_label: Kd

molecule: C[C@@H](Oc1cc2c(-c3ccc(N4CC5(C4)CN(S(C)(=O)=O)C5)nc3)n[nH]c2cc1F)c1c(Cl)cnnc1Cl
reported_measurement: 1 to 20 nM
//
molecule: CCOC(=O)N1CCC2(CC1)CN(c1ccc(-c3n[nH]c4ccc(O[C@H](C)c5c(Cl)cncc5Cl)cc34)cn1)C2
reported_measurement: 20 to 100 nM
//
molecule: C[C@@H](Oc1cc2c(-c3ccc(N4CC5(C4)CN(S(C)(=O)=O)C5)nc3)n[nH]c2cc1Cl)c1c(Cl)cnnc1Cl
reported_measurement: 1 to 20 nM
//
molecule: Cc1ncc(Cl)c([C@@H](C)Oc2ccc3[nH]nc(-c4cnn(C5CCN(C(C)C)CC5)c4)c3c2)c1Cl
reported_measurement: 1 to 20 nM
//
molecule: C[C@@H](Oc1ccc2[nH]nc(-c3ccc(N4CC5(C4)CN(S(C)(=O)=O)C5)nc3)c2c1)c1c(Cl)cnnc1Cl [Example 233]
reported_measurement: 100 to 300 nM
//
molecule: C[C@@H](Oc1cc2c(-c3cnc(N4CC5(C4)CN(S(C)(=O)=O)C5)c(C#N)c3)n[nH]c2cc1F)c1c(Cl)cncc1Cl
reported_measurement: 20 to 100 nM

* * *

target: UniProt:P21802; assay: Kinase assay, binding constants (Kd), kinase-tagged T7 phage, qPCR

compound: CCS(=O)(=O)N1CCCC2(CN(c3ccc(-c4n[nH]c5ccc(O[C@H](C)c6c(C)cnnc6C)cc45)cn3)C2)C1 [Example 186]
Kd: 20 to 100 nM
//
compound: COc1cc2[nH]nc(-c3cnc(N4CC5(C4)CN(S(C)(=O)=O)C5)c(F)c3)c2cc1O[C@H](C)c1c(Cl)cnc(C)c1Cl [Example 243]
Kd: 1 to 20 nM
//
compound: C[C@@H](Oc1ccc2[nH]nc(-c3ccc(N4CCNC(=O)C4)nc3)c2c1)c1c(Cl)cncc1Cl [Example 36]
Kd: 1 to 20 nM
//
compound: Cc1ncc(Cl)c([C@@H](C)Oc2ccc3[nH]nc(-c4cnn(C5CCS(=O)(=O)CC5)c4)c3c2)c1Cl [Example 116]
Kd: 20 to 100 nM
//
compound: Cc1cncc(C)c1[C@@H](C)Oc1ccc2[nH]nc(-c3ccc(N4CC5(C4)CN(S(C)(=O)=O)C5)nc3)c2c1 [Example 139]
Kd: 1 to 20 nM
//
compound: Cc1ncc(Cl)c([C@@H](C)Oc2cc3c(-c4cnc(N5CC6(C5)CN(S(C)(=O)=O)C6)c(F)c4)n[nH]c3cc2F)c1Cl [Example 269]
Kd: 20 to 100 nM
//
compound: Cc1cc2[nH]nc(-c3ccc(N4CC5(C4)CN(S(C)(=O)=O)C5)nc3)c2cc1O[C@H](C)c1c(Cl)cncc1Cl [Example 251]
Kd: 1 to 20 nM
//
compound: CCS(=O)(=O)N1CC2(CN(c3ncc(-c4n[nH]c5ccc(O[C@H](C)c6c(Cl)cnc(C)c6Cl)cc45)cn3)C2)C1 [Example 181]
Kd: > 300 nM
//
compound: C[C@@H](Oc1ccc2[nH]nc(-c3ccc(N4CC5CC(C4)N5S(C)(=O)=O)nc3)c2c1)c1c(Cl)cncc1Cl [Example 20]
Kd: 20 to 100 nM
//
compound: Cc1ncc(Cl)c([C@@H](C)Oc2ccc3[nH]nc(-c4cnn(C5CCN(C6COC6)CC5)c4)c3c2)c1Cl [Example 94]
Kd: 1 to 20 nM
//
compound: C[C@@H](Oc1ccc2[nH]nc(-c3ccc(N4CC5(CCCS(=O)(=O)C5)C4)nc3)c2c1)c1c(Cl)cncc1Cl [Example 159]
Kd: 1 to 20 nM
//
compound: C[C@@H](Oc1ccc2[nH]nc(-c3cnn(C4CCOCC4)c3)c2c1)c1c(Cl)cncc1Cl [Example 106]
Kd: 1 to 20 nM
//
compound: Cc1cnnc(C)c1[C@@H](C)Oc1ccc2[nH]nc(-c3ccc(N4CCN5CCC[C@H]5C4)nc3)c2c1 [Example 174]
Kd: 1 to 20 nM
//
compound: Cc1ncc(Cl)c([C@@H](C)Oc2ccc3[nH]nc(-c4ccc(N5CC6(CCC(O)C6)C5)nc4)c3c2)c1Cl (some centres unmarked) [Example 247]
Kd: 20 to 100 nM

* * *

molecular target: FGFR1-BCR Ba/F3 cells (Homo sapiens); experiment: Ba/F3 cell viability assay (CellTiter-Glo 2.0), FGFR1-BCR Ba/F3; assay type: cell-based; conditions: read-out: Ba/F3 Cells FGFR1 (IC50 nM), 48 hours, Cell Titer Glo 2.0
Sequence (P11362 22-822 limits assumed, change not shown): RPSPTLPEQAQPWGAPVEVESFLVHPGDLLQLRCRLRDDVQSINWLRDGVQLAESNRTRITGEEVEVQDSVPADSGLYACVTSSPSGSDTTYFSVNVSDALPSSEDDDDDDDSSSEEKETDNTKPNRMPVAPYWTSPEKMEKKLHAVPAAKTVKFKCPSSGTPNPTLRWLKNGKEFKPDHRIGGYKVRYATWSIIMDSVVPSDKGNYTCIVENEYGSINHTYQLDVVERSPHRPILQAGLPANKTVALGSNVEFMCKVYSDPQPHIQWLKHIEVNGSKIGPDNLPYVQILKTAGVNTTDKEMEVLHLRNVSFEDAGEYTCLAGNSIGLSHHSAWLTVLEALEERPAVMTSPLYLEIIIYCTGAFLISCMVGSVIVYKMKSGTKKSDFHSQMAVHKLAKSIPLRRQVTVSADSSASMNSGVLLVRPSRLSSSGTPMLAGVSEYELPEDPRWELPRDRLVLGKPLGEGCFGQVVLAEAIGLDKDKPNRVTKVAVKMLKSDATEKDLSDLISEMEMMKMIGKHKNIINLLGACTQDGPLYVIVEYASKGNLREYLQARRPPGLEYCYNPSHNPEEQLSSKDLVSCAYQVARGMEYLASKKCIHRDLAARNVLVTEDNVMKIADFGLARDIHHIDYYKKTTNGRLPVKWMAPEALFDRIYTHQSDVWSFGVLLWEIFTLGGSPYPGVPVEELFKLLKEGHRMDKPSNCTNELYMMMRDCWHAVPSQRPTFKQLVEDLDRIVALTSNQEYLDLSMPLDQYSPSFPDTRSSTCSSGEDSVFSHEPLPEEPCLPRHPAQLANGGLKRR
Structures can show the parent of a compound that is named as a salt.
Listed here: items and their measured IC50.
endpoint_label: IC50

compound: Cc1cnnc(C)c1[C@H](C)Oc1ccc2[nH]nc(-c3ccc(N4CC5(CCS(=O)(=O)C5)C4)nc3)c2c1 [Example 145]
reported_measurement: > 300 nM
//
compound: C[C@@H](Oc1ccc2[nH]nc(-c3ccc(C4CCN(C(=O)N(C)C)CC4)nc3)c2c1)c1c(Cl)cncc1Cl [Example 71]
reported_measurement: 20 to 100 nM
//
compound: C[C@@H](Oc1ccc2[nH]nc(-c3ccc(N4CCN(S(C)(=O)=O)C5(CC5)C4)nc3)c2c1)c1c(Cl)cncc1Cl [Example 22]
reported_measurement: 100 to 300 nM
//
compound: C[C@@H](Oc1ccc2[nH]nc(-c3ccc(N4CCNCC4)nc3)c2c1)c1c(Cl)cncc1Cl [Example 2, dihydrochloride]
reported_measurement: 100 to 300 nM
//
compound: C[C@H](Oc1ccc2[nH]nc(-c3ccc(N4CC5(C4)CN(S(C)(=O)=O)C5)nc3)c2c1)c1c(Cl)cncc1Cl [Example 160]
reported_measurement: > 300 nM
//
compound: C[C@@H](Oc1ccc2[nH]nc(-c3ccc(N4CCNC5(CC5)C4)nc3)c2c1)c1c(Cl)cncc1Cl [Example 21]
reported_measurement: 100 to 300 nM
//
compound: CCOC(=O)N1CC2(C1)CN(c1ccc(-c3n[nH]c4ccc(O[C@H](C)c5c(C)cnnc5C)cc34)cn1)C2 [Example 142]
reported_measurement: 100 to 300 nM
//
compound: C[C@@H](Oc1ccc2[nH]nc(-c3ccc(N4CC5(CNC5)OC4=O)nc3)c2c1)c1c(Cl)cncc1Cl [Example 73]
reported_measurement: 100 to 300 nM
//
compound: C[C@@H](Oc1ccc2[nH]nc(-c3ccc(N4CC5(C4)CN(S(C)(=O)=O)C5)nc3)c2c1)c1c(Cl)cccc1Cl [Example 170]
reported_measurement: > 300 nM
//
compound: Cc1cncc(C)c1[C@H](C)Oc1ccc2[nH]nc(-c3ccc(N4CC5(C4)CN(S(C)(=O)=O)C5)nc3)c2c1 [Example 140]
reported_measurement: > 300 nM
//
compound: Cc1cnnc(C)c1[C@@H](C)Oc1ccc2[nH]nc(-c3ccc(N4CC5(C4)CN(S(C)(=O)=O)C5)nc3)c2c1 [Example 148]
reported_measurement: > 300 nM
//
compound: C[C@@H](Oc1ccc2[nH]nc(-c3cnc(N4CCCN(C(N)=O)CC4)nc3)c2c1)c1c(Cl)cncc1Cl [Example 62]
reported_measurement: > 300 nM
//
compound: C[C@@H](Oc1ccc2[nH]nc(-c3ccc(N4CCN(S(C)(=O)=O)CC4)nc3)c2c1)c1c(Cl)cncc1Cl [Example 6]
reported_measurement: 20 to 100 nM
//
compound: C[C@@H](Oc1ccc2[nH]nc(-c3ccc(N4CC5(C4)CN(S(C)(=O)=O)C5)nc3)c2c1)c1c(Cl)cncc1Cl [Example 46]
reported_measurement: 20 to 100 nM
//
compound: CCOC(=O)N1CC2(C1)CN(c1ncc(-c3n[nH]c4ccc(O[C@H](C)c5c(C)cnnc5C)cc34)cn1)C2 [Example 146]
reported_measurement: > 300 nM
//
compound: C[C@@H](Oc1ccc2[nH]nc(-c3cnn(C4CCS(=O)(=O)CC4)c3)c2c1)c1c(Cl)cncc1Cl [Example 114]
reported_measurement: 100 to 300 nM
//
compound: Cc1cnnc(C)c1[C@@H](C)Oc1ccc2[nH]nc(-c3ccc(N4CC5(CCS(=O)(=O)C5)C4)nc3)c2c1 [Example 144]
reported_measurement: > 300 nM
//
compound: Cc1ncc(Cl)c([C@@H](C)Oc2ccc3[nH]nc(-c4cnn(C5CCN(C(C)C)CC5)c4)c3c2)c1Cl [Example 93]
reported_measurement: 100 to 300 nM
